The values you see were collected from the RNAGym collection of RNA variant scans (doi:10.7554/elife.80360).

Provide the reported self-cleavage of each item.
B1: HDV Ribozyme (parent)
chain: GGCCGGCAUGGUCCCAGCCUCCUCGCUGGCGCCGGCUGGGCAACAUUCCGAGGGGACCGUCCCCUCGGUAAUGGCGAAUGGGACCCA

Variants of: B1
assay procedure: self-cleavage, relative activity (ratio to wild type); higher = more cleavage; co-transcriptional

Observe how each entry below is paired with its result.
seq string: GGCCGGCAUGGUCCCAGCCUCCUCGCUGGCGCCGGCUGGGGAACAUUCCGAGGGGACCGUCCCCUCGAUAAUGGCGAAUGGGACCCA [C41G G68A]
self-cleavage: 0.45
//
seq string: GGCCGGCCUGGUCCCAGCCUCCUCGCUGGCGCCAGCUGGGCAACAUUCCGAGGGGACCGUCCCCUCGGUAAUGGCGAAUGGGACCCA [A8C G34A]
self-cleavage: 0.0475
//
seq string: GGCCGGCAUGGUCCCAGCCUCCUCGCUGGCGCCGGCUGGGCAACAUUCCGAGGGGACCGUCCCUUCGGUAAUGGCGAAUGGGACGCA [C64U C85G]
self-cleavage: 0.851
//
seq string: GGCCGGCAUGGUCCCAGCCUUCUCGCUGGCGCCGGCUGGGCAACAUUCCGAGGGGACCGUCCCCUCGGGAAUGGCGAAUGGGACCCA [C21U U69G]
self-cleavage: 0.19
//
seq string: GGCCGGCAUGGUCCGAGCCUCCUCGCUGACGCCGGCUGGGCAACAUUCCGAGGGGACCGUCCCCUCGGUAAUGGCGAAUGGGACCCA [C15G G29A]
self-cleavage: 0.0339
//
seq string: GGCCGGCAUGGUCCCAGCCUCCUCGCUGGCGCCGGCUGGGCAACACACCGAGGGGACCGUCCCCUCGGUAAUGGCGAAUGGGACCCA [U46C U47A]
self-cleavage: 1.08

Below is a list of variants. For each, state its recorded self-cleavage.
1. GGCCGGCAUGGUCCCAGCCUACUCGCUGGCGCCGGCUGGGCAACGUUCCGAGGGGACCGUCCCCUCGGUAAUGGCGAAUGGGACCCA [C21A A45G]
2. GGCCGGCAUGGUCCCAGCCUCCUCGCUGGCGCCGGCUGGGCAACAUUCCGAGGGGACCGUCCGCUCGGUACUGGCGAAUGGGACCCA [C63G A71C]
3. GGCCGGCAUGGUCCCAGCCUCCUCUCUGGCGCCGGCUGGGCAACAUUCCGAGGGGACCGUCCCCUCGGUAAUGGCGAACGGGACCCA [G25U U79C]
4. GGCCGGCAUGGUCCCAGCCUCCUCGCUGGCGCCGGCUGGGCAACAUUCCGAGGGGACCGUCCCCUCGGAAAUGGGGAAUGGGACCCA [U69A C75G]

0.0615
0.782
0.115
0.138
